Origin of measurements: the supplement of paper PMC3545927

Molecular target: furin, P09958;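 further: purified furin at 1:10 enzyme:substrate in 50 mM HEPES pH 7.5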
Sequence (P09958 whole entry): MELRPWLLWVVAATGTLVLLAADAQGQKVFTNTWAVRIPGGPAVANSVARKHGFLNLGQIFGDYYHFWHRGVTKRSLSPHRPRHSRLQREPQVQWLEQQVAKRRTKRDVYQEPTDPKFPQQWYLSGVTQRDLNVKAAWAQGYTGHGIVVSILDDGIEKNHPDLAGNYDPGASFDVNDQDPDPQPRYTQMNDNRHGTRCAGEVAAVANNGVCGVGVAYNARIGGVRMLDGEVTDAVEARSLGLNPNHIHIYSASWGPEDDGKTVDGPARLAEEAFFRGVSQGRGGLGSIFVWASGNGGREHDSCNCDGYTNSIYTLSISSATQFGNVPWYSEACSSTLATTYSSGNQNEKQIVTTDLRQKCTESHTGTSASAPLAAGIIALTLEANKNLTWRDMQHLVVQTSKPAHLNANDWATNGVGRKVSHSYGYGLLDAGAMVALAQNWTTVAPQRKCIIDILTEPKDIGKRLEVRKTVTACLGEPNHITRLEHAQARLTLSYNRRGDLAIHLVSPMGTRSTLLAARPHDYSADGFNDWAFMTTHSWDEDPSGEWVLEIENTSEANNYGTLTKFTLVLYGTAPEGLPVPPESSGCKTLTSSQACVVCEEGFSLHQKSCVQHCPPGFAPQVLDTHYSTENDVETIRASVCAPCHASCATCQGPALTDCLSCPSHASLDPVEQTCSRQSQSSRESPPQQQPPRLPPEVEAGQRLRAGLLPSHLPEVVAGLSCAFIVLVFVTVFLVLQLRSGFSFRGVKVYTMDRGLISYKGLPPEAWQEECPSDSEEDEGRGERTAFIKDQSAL
Test: furin cleavage Z-score vs untreated control; higher = more cleavage, active = 3.5 or more, inactive = 1 or less, 8 variable residues between constant flanks
Details: 7.5 min
The list shows a part of the results. How many sequences the whole screen found active is unknown.
Thanks in advance; please answer with one of these: active, inactive

The following sequences have reported results that may help.
CARSSRDSSAAGNASASA [FS-2092]: inactive
CALRKRLTPLAGNASASA [FS-1883]: inactive
CAGHRMAWDMAGNASASA [HC318]: inactive

Which outcome was assigned to CAYLNRGRRSAGNASASA [FS-1504] in this test?
active

Which outcome was assigned to CAMWHREKRRAGNASASA [FS-1141] in this test?
active

Which outcome was assigned to CAYSSMPPLEAGNASASA [HC1353] in this test?
inactive

Which outcome was assigned to CALPEAGRRSAGNASASA [FS-1462] in this test?
inactive
